# Assayed System: DNA topoisomerase I (Bos taurus) (UniProt F1MN93)
# Sequence (F1MN93 as listed by the source): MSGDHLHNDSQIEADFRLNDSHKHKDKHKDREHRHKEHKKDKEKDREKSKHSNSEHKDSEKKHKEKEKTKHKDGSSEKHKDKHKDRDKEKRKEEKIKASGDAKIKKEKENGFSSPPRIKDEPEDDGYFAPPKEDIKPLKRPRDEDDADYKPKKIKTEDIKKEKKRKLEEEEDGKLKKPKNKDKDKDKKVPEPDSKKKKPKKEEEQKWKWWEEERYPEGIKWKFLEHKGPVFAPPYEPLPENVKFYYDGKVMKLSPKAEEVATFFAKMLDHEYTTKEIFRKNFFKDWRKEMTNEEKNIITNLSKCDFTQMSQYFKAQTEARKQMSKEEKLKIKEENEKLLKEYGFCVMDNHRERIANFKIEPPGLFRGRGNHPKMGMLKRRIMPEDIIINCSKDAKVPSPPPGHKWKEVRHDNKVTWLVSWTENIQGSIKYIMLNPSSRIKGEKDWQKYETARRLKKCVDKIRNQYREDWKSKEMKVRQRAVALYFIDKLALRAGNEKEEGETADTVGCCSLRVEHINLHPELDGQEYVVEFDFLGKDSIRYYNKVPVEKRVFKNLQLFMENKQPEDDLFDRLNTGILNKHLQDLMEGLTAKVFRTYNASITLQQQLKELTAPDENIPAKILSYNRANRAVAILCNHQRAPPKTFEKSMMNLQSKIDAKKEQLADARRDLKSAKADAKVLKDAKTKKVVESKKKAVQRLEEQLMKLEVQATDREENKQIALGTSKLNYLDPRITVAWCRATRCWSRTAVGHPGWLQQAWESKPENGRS
# Assay Notes: Inhibition of calf thymus Top1 assessed as reduction in supercoiled pBR322 DNA relaxation at 100 uM measured after 30 mins by agarose gel electrophoresis relative to camptothecin
Readout Label: inhibition

Entry "C[C@@H]1CC[C@]2(C(=O)O)CC[C@]3(C)C(=CC[C@@H]4[C@@]5(C)C[C@@H](O)OCC(C)(C)[C@@H]5CC[C@]43C)[C@@H]2[C@]1(C)O" needs its inhibition filled in; supply it.
< 29%

Provide inhibition value for the following compound: "CC(C)c1ccc2c(c1O)CC[C@@H]1[C@@](C)(CO)CCC[C@@]21C"
0%

Provide one value: measured inhibition of "CC1(C)CC[C@]2(C(=O)O)CC[C@]3(C)C(=CC[C@@H]4[C@@]5(C)C[C@H](O)[C@H](O)[C@@](C)(COC(C)(C)O)[C@@H]5CC[C@]43C)[C@@H]2C1"
60 to 89%

Respond only with inhibition recorded for "CO[C@@H]1C[C@]2(C)[C@H]3CC=C4[C@H]5[C@](C(=O)O)(CC[C@@H](C)[C@@]5(C)O)CC[C@@]4(C)[C@]3(C)CC[C@H]2C(C)(C)CO1"
30 to 59%

Look up and report measured inhibition for this entry: "C=C1C(=O)O[C@H]2C3=CC[C@@H]4C(C)(C)[C@H](O)CC[C@@]4(C)[C@@H]3CC[C@@H]12"
30 to 59%

Here's the next entry for you.
Given "CC1(C)CC[C@]2(C(=O)O)CC[C@]3(C)C(=CC[C@@H]4[C@@]5(C)C[C@@H](O)[C@@H](O)C(C)(C)[C@@H]5CC[C@]43C)[C@@H]2C1" , respond with its inhibition.
30 to 59%
